# runDescription: yeast display, Sf9 membrane polyspecificity reagent, FACS + sequencing; frameworks hold sequencing errors

[
  {
    "residues": "QVQLVESGGGLVQAGGSLRLSCAASGRIFINYAMGWYRQAPGKERELVAAITTNGGSTYYADSVKGRFTISRDNAKYTVYLQMNSLKPEDTAVYYCAARRRYKMDYWGQGTQVTVSS",
    "polyreactivity (PSR sort gate)": "high polyreactivity"
  },
  {
    "residues": "QVQLVESGGGLVQAGGSLRLSCAASGRIITKYTMGWYRQAPGKERELFAAISRSDRTNYADSVKGRFTISRDNAKNTVYLQMNSLKPEDTAVYYCNARHSYWTGRRVTDDYDYRGQGTQVTVSS",
    "polyreactivity (PSR sort gate)": "high polyreactivity"
  },
  {
    "residues": "QVQLVESGGGLVQAGGSLRLSCAASGSTFTRYAMGWYRQAPGKERELVAAITRSGGGTYYADSVKGRFTISRDNAKNTVYLQMNSLKPEDTAVYYCAKDIVFYGAPGYGYWGQGTQVTVSS",
    "polyreactivity (PSR sort gate)": "high polyreactivity"
  },
  {
    "residues": "QVQLVESGGGLVQAGGSLRLSCAASGFTFRRYAMGWYRQAPGKERELVAAISYSGGITYYADSVKGRFTISRDNAKNTVYLQMNSLKPEDTAVYYCAAESVWTWYYTTAGMDYWGQGTQVTVSS",
    "polyreactivity (PSR sort gate)": "high polyreactivity"
  }
]

* * *

# runDescription: yeast display, Sf9 membrane polyspecificity reagent, FACS + sequencing; frameworks hold sequencing errors
valueKind: polyreactivity (PSR sort gate)

Completed entries (count: 4):
[
  {
    "residues": "QVQLVESGGGLVKAGGSLRLSCAASGFIFVYYAMGWYRQAPGKERELVARISWRGGRTYYADSVKGRFTISRDNAKNTVYLQMNSLKPEDTAVYYCNADFWNSHVWYDYWGQGTQVTVSS",
    "polyreactivity (PSR sort gate)": "high polyreactivity"
  },
  {
    "residues": "QVQLVESRGGLVQAGGSLRLSCAASGPTFRNTAMGWSRQAPGKDREFVAVISNTGGSTYYADSVKGRFTISRDNAKNTVYLQMNSLKAEDTAVYYCGVRPRYSQYYYWGQGTQVTVSS",
    "polyreactivity (PSR sort gate)": "high polyreactivity"
  },
  {
    "residues": "QVQLVESGGGLVQAGGRLRLSCAASGRTFARYDRGWYRQAPGKELVLVAGMNGDGGSTNYADSVKGRFTISRDNAKNSVYLQMNSLKPEDTAVYYCNVVQEDRTLHVSIKQLSDHWGQGTQVTVSS",
    "polyreactivity (PSR sort gate)": "low polyreactivity"
  },
  {
    "residues": "QVQLVESGGGLVQAGGSLRLSCAASGSIFRYNAMGWYRKAPGKERELVAAISYRGGSTYYADSVKGRFTISRDNAKITVYLQINSLKPEDTAVYYCAAAVQYSGYRFNYWGQGTQVTVSS",
    "polyreactivity (PSR sort gate)": "high polyreactivity"
  }
]

Reported polyreactivity (PSR sort gate) ( QVQLVESGGGLVQAGGSLRLSCAASGSIFASNTMGWSRQATGKERELVAGITKIGSSTYYADSVKGRFTISRDNAKNTVYLQMNSLKPEDTEVYYCNAYGPNIYSSRYDYWGQGTQVTVSS ) = low polyreactivity

Looking up QVQLVESGGGLVQAGGSLRLSCAASGSIFEGYVMGWYRQAPGKERELVATISFSGGSTYYADSVKGRFTISRDNAKNTVYLQMNSLKPEDTAVYYCATSRYFNTGRGYWGQGTQVTVSS , I found its polyreactivity (PSR sort gate) recorded as low polyreactivity

Just so you know, measured polyreactivity (PSR sort gate) for QVQLVESGGGLVQAGGSLRLSCAASGSTFRPSAMGWYRQAPGKERELVAAIRSGRTSYADSVKGRFTISRDYAKNTVYLQMNSLKPEDTAVYYCAKASRGGYYWGQGTQVTVSS came out at high polyreactivity
